Tested on: SK-MEL-5 melanoma
RUN DESCRIPTION: NCI tumour cell line growth inhibition, 48 h; in the data active = GI50 below about 0.43 µM; inactive = the rest
Your answer must be one of the following: active, inactive

// known answers, use as guide
CC(C)CCCC(C)[C@H]1CCC2C3CC=C4C[C@@H](OC(=O)CC(CC(=O)[O-])C(=O)[O-])CC[C@]4(C)C3CC[C@@]21C.N.N.[Pt+4] (stereo partly drawn)
inactive
CC1(C)CC(C(=O)OCCCCCCCCCCC[P+](c2ccccc2)(c2ccccc2)c2ccccc2)C(C)(C)N1O (stereo not drawn)
active
COc1ncc(-c2ccc3ncnc(Nc4cccc(Cl)c4)c3c2)cc1NS(C)(=O)=O
inactive
COc1ccc(-n2nc(C(=O)NCC(=O)Nc3nc4cc(OC)ccc4s3)c3ccccc3c2=O)cc1
inactive
COc1ccc(-n2nc(C(=O)c3ccccc3)c3nn4c(=O)cc(-c5ccccc5)nc4nc32)cc1
inactive
COc1cc(NC(=O)c2cc3ccccc3cc2O)c(OC)cc1Cl
inactive
CC1=CC[C@@H]2C(=O)C=CC=C[C@H]12.[C-]#[O+].[C-]#[O+].[C-]#[O+].[Fe]
inactive

Attention now turns to another entry.
Dear all, I need the recorded test outcome for COc1ccc(-c2cncn2-c2ccc(-c3nc4cc(OC)c(OC)c(OC)c4s3)cc2)cc1N , thank you.
inactive

* * *

Each entry below lists one item and its recorded TGI value.
Test system: PC-3 prostate
RUN DESCRIPTION: NCI tumour cell line growth inhibition, 48 h
Write it as a number; the unit µM goes unstated.

Some solved entries appear below for comparison.
CCOC(=O)/C=C/C1=C(Br)[C@@]2(C)CC[C@@H]3c4ccc(O)cc4CC[C@H]3[C@@H]2C1
28.5
CC12OC(C(=O)C13CCC3)C1C(=O)c3c(O)ccc(O)c3C(=O)C12 (stereo unspecified)
9.09
Cc1nc2sc(C(=O)Nc3cccc(Cl)c3C)c(N)c2cc1C(O)c1ccccc1 (stereo unspecified)
24.4

Which TGI reading was recorded for the molecule COc1ccc2cn3c4ccc(O)cc4[nH]c(=O)c3c2c1 ?
16.9

Which TGI reading was recorded for the molecule CCCCCCCCCc1cc(=O)c2c(O)cc(O)cc2o1 ?
32.1

* * *

Tested on: MOLT-4 leukemia
RUN DESCRIPTION: NCI tumour cell line growth inhibition, 48 h
Peptide text beside a SMILES is read from it. * marks the point of attachment. Cbz = O=C(OCc1ccccc1)*
Each entry below lists one item and its recorded TGI value.

Some solved entries appear below for comparison.
CC1=C(C(=O)NCc2ccccc2)C(c2ccc(N(C)C)cc2)C(C(=O)NCc2ccccc2)=C(C)N1
> 100 µM
CN(CCN1C(=O)c2cccc3cccc(c23)C1=O)CCN1C(=O)c2cccc3cccc(c23)C1=O
> 100 µM

Which TGI reading was recorded for the compound CN(C)c1ccc(/C=C2\C[C@H]3[C@@H]4CC=C5C[C@@H](O)CC[C@]5(C)[C@H]4CC[C@]3(C)[C@H]2O)cc1 ?
> 100 µM

Which TGI reading was recorded for the compound O=C(O)c1ccc(C2=Nc3cccc4cccc(c34)N2)cc1 ?
> 100 µM

Which TGI reading was recorded for the compound CCOC(=O)CCC(NC(=O)CNC(=O)CNC(=O)C(CCC(=O)OCC)NC(=O)C(CCC(=O)OCC)NC(=O)C(CCC(=O)OCC)NC(=O)OCc1ccccc1)C(=O)NC(CCC(=O)OCC)C(=O)NC(CCC(=O)OCC)C(=O)OCC (stereo not drawn) (Cbz-E(OEt)E(OEt)E(OEt)GGE(OEt)E(OEt)E(OEt)-OEt; configuration not given here) ?
> 75 µM

Which TGI reading was recorded for the compound Cn1c(=O)c2[nH]c(CCS)nc2n(C)c1=O ?
> 100 µM

Which TGI reading was recorded for the compound O=C1/C(=C/c2ccc([N+](=O)[O-])cc2)Sc2scc(-c3cccc([N+](=O)[O-])c3)[n+]21 ?
> 20.1 µM
